Hello, the source for this data is patent US9662327B2, in case you need it.

SYSTEM NAME: IDH1 R132H (Homo sapiens (Human), UniProt O75874, R132H)
Sequence (O75874 whole entry R132H): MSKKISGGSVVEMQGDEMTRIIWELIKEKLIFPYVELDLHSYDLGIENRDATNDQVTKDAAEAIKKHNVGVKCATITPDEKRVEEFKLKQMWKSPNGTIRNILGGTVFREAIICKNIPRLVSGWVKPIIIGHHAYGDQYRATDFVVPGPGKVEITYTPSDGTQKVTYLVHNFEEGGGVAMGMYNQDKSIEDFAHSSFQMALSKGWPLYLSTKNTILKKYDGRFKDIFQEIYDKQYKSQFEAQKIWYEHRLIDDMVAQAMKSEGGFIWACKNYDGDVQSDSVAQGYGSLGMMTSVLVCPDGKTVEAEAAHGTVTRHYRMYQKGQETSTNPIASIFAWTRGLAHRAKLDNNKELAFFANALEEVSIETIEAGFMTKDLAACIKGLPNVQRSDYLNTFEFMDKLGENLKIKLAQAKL
EXPERIMENT DESCRIPTION: Assays for IDH1 R132H Inhibitors (NADPH/aKG, resazurin detection)
Assay type: biochemical
COND: IDH1 R132H enzyme, Table 2; read-out: IDHR132H Activity
compounds and their reported IC50

# COMPOUND, IC50
rows = [
    ("COc1cccc(CC(=O)N2CCN(c3nc(C4CC4)c4c(c3C#N)CC(C)(C)OC4)C[C@H]2C(C)C)c1 [Compound 254]", "500 to 1000 nM"),
    ("CC[C@@H]1CN(c2nc(C3CC3)c3c(c2C#N)CC(C)(C)OC3)CCN1C(=O)c1ccoc1 [Compound 235]", "< 500 nM"),
    ("CC1CN(c2nc(C3CCCC3)c3c(c2C#N)CC(C)(C)OC3)CCN1C(=O)c1ccco1 (stereo not shown) [Compound 147]", "1000 to 10000 nM"),
    ("CCCOC(=O)N1CCN(c2nc(C3CCCCC3)c3c(c2C#N)CCOC3)C[C@H]1C [Compound 359]", "1000 to 10000 nM"),
]

###

SYSTEM NAME: IDH1 R132H (Homo sapiens (Human), UniProt O75874, R132H)
EXPERIMENT DESCRIPTION: Assays for IDH1 R132H Inhibitors (NADPH/aKG, resazurin detection)
Assay type: biochemical
COND: IDH1 R132H enzyme, Table 3; read-out: R132H IC50
pIC50: −log10 of the molar value.
compounds and their reported pIC50

# COMPOUND, pIC50
measured = [
    ("CC(C)[C@@H]1CN(c2nc(C3CC3)c3c(c2C#N)CC(C)(C)OC3)CCN1C(=O)CC1CCO1 (stereo partly shown)", "> 6.30"),
    ("CC1(C)Cc2c(C#N)c(N3CCN(C(=O)CCO)[C@H](C4CC4)C3)nc(C3CC3)c2CO1", "> 6.30"),
    ("CC(C)[C@@H]1CN(c2nc(C3CC3)c3c(c2C#N)CC(C)(C)OC3)CCN1C(=O)C[S+](C)[O-] (stereo partly shown)", "6.00 to 6.30"),
    ("CC(O)CC(=O)N1CCN(c2nc(C3CC3)c3c(c2C#N)CC(C)(C)OC3)C[C@H]1C1CC1 (stereo partly shown)", "> 6.30"),
]

###

SYSTEM NAME: IDH1 R132H (Homo sapiens (Human), UniProt O75874, R132H)
EXPERIMENT DESCRIPTION: Assays for IDH1 R132H Inhibitors (NADPH/aKG, resazurin detection)
Type: biochemical
COND: IDH1 R132H enzyme, Table 2; read-out: IDHR132H Activity
pIC50: −log10 of the molar value.
compounds and their reported pIC50

# COMPOUND, SYSTEM NAME, pIC50
records = [
    ("CC(C)[C@@H]1CN(c2nc(C3CC3)c3c(c2C#N)CC(C)(C)OC3)CCN1S(C)(=O)=O [Compound 323]", "IDH1 R132H (Homo sapiens (Human), UniProt O75874, R132H)", "5.00 to 6.00"),
    ("CC(C)[C@@H]1CN(c2nc(C3CC3)c3c(c2C#N)CC(C)(C)OC3)CCN1C(=O)Cc1ccccn1 [Compound 211]", "IDH1 R132H (Homo sapiens (Human), UniProt O75874, R132H)", "> 6.30"),
    ("C[C@H]1CN(C(=O)c2ccco2)CCN1c1nc(C2CC2)c2c(c1C#N)CC(C)(C)OC2 [Compound 203]", "IDH1 R132H (Homo sapiens (Human), UniProt O75874, R132H)", "5.00 to 6.00"),
    ("C[C@@H]1CN(c2nc(C3CC3)c3c(c2C#N)CC(C)(C)OC3)CCN1C(=O)c1ccco1 [Compound 167]", "IDH1 R132H (Homo sapiens (Human), UniProt O75874, R132H)", "5.00 to 6.00"),
    ("CCC(=O)N1CCN(c2nc(C3CC3)c3c(c2C#N)CC(C)(C)OC3)C[C@H]1C(C)C [Compound 354]", "IDH1 R132H (Homo sapiens (Human), UniProt O75874, R132H)", "> 6.30"),
    ("Cc1oncc1C(=O)N1CCN(c2nc(C3CCCCC3)c3c(c2C#N)CCOC3)C[C@H]1C [Compound 187]", "IDH1 R132H (Homo sapiens (Human), UniProt O75874, R132H)", "6.00 to 6.30"),
    ("Cc1nc2ccccn2c1C(=O)N1CCN(c2nc(C(C)C)c3c(c2C#N)CC(C)(C)OC3)C[C@H]1C [Compound 220]", "IDH1 R132H (Homo sapiens (Human), UniProt O75874, R132H)", "5.00 to 6.00"),
    ("CCOC(=O)[C@@H]1CN(c2nc(C(C)C)c3c(c2C#N)CC(C)(C)OC3)CCN1C(=O)c1ccoc1 [Compound 411]", "IDH1 R132H (Homo sapiens (Human), UniProt O75874, R132H)", "6.00 to 6.30"),
    ("CC1CN(c2nc(C3CCCCC3)c3c(c2C#N)CC(C)(C)OC3)CCN1C(=O)c1ccoc1 (stereo not drawn) [Compound 169]", "IDH1 R132H (Homo sapiens (Human), UniProt O75874, R132H)", "5.00 to 6.00"),
    ("C[C@@H]1CN(c2nc(C3CCCCC3)c3c(c2C#N)CCOC3)CCN1C(=O)C1CCOC1 (stereo partly drawn) [Compound 263]", "IDH1 R132H (Homo sapiens (Human), UniProt O75874, R132H)", "5.00 to 6.00"),
    ("CC(C)c1nc(N2CCN(C(=O)NC3CCCCC3)CC2)c(C#N)c2c1COCC2 [Compound 107]", "IDH1 R132H (Homo sapiens (Human), UniProt O75874, R132H)", "5.00 to 6.00"),
    ("CC[C@@H]1CN(c2nc(C(C)C)c3c(c2C#N)CC(C)(C)OC3)CCN1C(=O)c1ccoc1 [Compound 205]", "IDH1 R132H (Homo sapiens (Human), UniProt O75874, R132H)", "> 6.30"),
]
